Values from the supplement of paper PMC6555819

System: LXRa homodimer (NR concentration 270 nM)
Experiment: PBM binding z-score (relative to random genomic background probes); higher = stronger binding; sequences stand for … in GC…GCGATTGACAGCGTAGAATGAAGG
I'd appreciate it if you could supply PBM binding z-score values for the items below.
Give bare numbers.

Some solved cases for reference:
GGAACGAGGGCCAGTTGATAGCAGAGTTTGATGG ... -0.645
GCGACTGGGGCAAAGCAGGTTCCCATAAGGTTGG ... -0.593
CAAACTAGGTCAACGGAAGGTCAAAGTCCGCATG ... 5.99
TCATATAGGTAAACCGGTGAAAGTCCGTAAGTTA ... 0.147

Look up PBM binding z-score for the entries below, preserving their order.
1. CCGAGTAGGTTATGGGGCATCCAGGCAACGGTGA
2. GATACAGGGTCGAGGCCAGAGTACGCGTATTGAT

[reply]
1. -0.312
2. -0.581

Look up PBM binding z-score for the entries below, preserving their order.
1. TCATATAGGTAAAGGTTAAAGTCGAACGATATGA
2. CGACCTAGGTCAGAACAGGACAGTGAAGGATGAT

[reply]
1: 0.888; 2: 0.143
